molecular target: native S. pasteurii CCM 2056 urease (Sporosarcina pasteurii); construct: The S. pasteurii CCM 2056 cells were used as the source of a native enzyme; endogenous in cells; host or cells: S. pasteurii CCM 2056 culture; endogenous enzyme purified in house from the sonicated cell extract by five-step chromatography; test: Inhibition of purified native urease, indophenol (Berthelot) ammonia assay; format: biochemical; settings: purified native enzyme; EI dissociation constant from Lineweaver-Burke plots; urea up to 30 mM; 3 mM phosphate buffer; read-out: Ki [μM] (± SD)
PARAMETER_MEASURED: Ki (µM)
Respond with the bare value in µM.

Asked: Recorded Ki for NC(=S)N/N=C(\C=C\c1ccccc1)c1ccccc1 [Compound 21] , please?
Given back: 6.13

Asked: Look up Ki for this compound: COc1ccc(C2=CC(c3ccccc3)NC(=S)N2)c(OC)c1 (stereo not drawn) [Compound 41]
Given back: 47.7

Asked: Item under review: COc1ccc(/C=N/NC(N)=S)cc1OC [Compound 18] . Reported Ki?
Given back: 37.5

====

Kindly state log10 Ki for each of the entries shown.
target: native S. pasteurii CCM 2056 urease (Sporosarcina pasteurii, UniProt P41020); construct: The S. pasteurii CCM 2056 cells were used as the source of a native enzyme; endogenous in cells; host or cells: S. pasteurii CCM 2056 culture; endogenous enzyme purified in house from the sonicated cell extract by five-step chromatography; experiment: Inhibition of purified native urease, indophenol (Berthelot) ammonia assay; type: biochemical; conditions: purified native enzyme; EI dissociation constant from Lineweaver-Burke plots; urea up to 30 mM; 3 mM phosphate buffer; read-out: Ki [μM] (± SD)
Sequence (P41022 whole entry): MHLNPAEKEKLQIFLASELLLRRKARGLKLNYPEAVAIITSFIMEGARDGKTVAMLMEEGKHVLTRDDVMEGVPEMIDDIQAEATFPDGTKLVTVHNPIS
Sequence (P41021 whole entry, further chain): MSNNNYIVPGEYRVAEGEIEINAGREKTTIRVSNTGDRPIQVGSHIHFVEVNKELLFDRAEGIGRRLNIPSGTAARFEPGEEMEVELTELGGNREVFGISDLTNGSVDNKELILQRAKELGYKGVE
Sequence (P41020 whole entry): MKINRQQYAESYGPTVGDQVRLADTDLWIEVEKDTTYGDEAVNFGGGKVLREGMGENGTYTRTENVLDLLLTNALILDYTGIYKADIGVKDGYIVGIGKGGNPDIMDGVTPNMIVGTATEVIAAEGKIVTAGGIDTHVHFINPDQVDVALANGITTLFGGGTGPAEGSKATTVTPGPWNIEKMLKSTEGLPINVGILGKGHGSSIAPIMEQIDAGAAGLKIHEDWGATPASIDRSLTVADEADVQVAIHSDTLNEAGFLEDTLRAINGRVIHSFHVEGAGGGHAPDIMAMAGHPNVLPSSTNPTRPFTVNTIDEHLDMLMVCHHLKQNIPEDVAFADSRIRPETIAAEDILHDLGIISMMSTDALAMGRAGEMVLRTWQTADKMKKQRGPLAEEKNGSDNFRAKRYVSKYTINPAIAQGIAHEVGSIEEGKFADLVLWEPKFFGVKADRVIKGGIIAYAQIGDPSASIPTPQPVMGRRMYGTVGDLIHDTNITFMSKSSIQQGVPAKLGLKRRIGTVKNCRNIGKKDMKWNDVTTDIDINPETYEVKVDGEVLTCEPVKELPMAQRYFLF
The common logarithm of Ki in µM is what is listed.

Asked: I'd like to know its log10 Ki. The compound in question is NC(=S)N/N=C(\C=C\c1ccccc1)c1ccc(O)cc1
Given back: 0.73

Asked: Fill in the blank: the reported log10 Ki of COc1ccc(-c2csc(NC(=S)NCc3ccccc3)n2)cc1 is ____.
Given back: 1.62

Asked: Recorded log10 Ki for NNC(=S)N/N=C(\C=C\c1ccccc1)c1ccccc1 , please?
Given back: 0.35

Asked: // lookup log10 Ki for S=C1NC(c2ccccc2)=CC(c2ccc(Cl)cc2)N1 (stereo not drawn)
Given back: 1.48

Asked: Suppose we examine the compound SC1=NC(c2ccccc2)=CC(c2ccccc2)N1 (stereo not drawn) ; what log10 Ki value has been reported?
Given back: 1.56

Asked: Entry Cc1ccc(C2CC(c3ccccc3)=NN2C(N)=S)cc1 (stereo not drawn) : reported log10 Ki = ?
Given back: 1.94

Asked: Fill in the blank: the reported log10 Ki of Cc1ccc(/C=N/NC(=S)NN)cc1 is ____.
Given back: 1.13

Asked: // query log10 Ki value for entry Fc1ccc(C2C=C(c3ccccc3)NC(=S)N2)cc1 (stereo not drawn)
Given back: 0.74

Asked: Bench note: what log10 Ki did NC(=S)N1N=C(c2ccccc2)CC1c1ccccc1 (stereo not drawn) show?
Given back: 1.86

Asked: I am curious: what log10 Ki value has been reported for NC(=S)N/N=C(\C=C\c1ccc(F)cc1)c1ccccc1 ?
Given back: 1.38

Asked: Item under review: COc1ccc(C(/C=C/c2ccccc2)=N/NC(N)=S)c(OC)c1 . Reported log10 Ki?
Given back: 0.48

Asked: Need log10 Ki, item NC(=S)N/N=C/c1ccc(Cl)cc1
Given back: 0.91

Asked: Request the reported log10 Ki associated with NNC(=S)N/N=C(\C=C\c1ccc(Cl)cc1)c1ccccc1
Given back: 1.11

Asked: GET /values?readout=log10 Ki&item= NC(=S)N/N=C/c1ccccc1
Given back: 0.55

Asked: Entry S=C(NCc1ccccc1)Nc1nc(-c2ccccc2)cs1 has what log10 Ki?
Given back: 1.66

Asked: Form field: reported log10 Ki of C/C(=N\NC(N)=S)c1ccc(O)cc1
Given back: 1.52

Asked: GET /values?readout=log10 Ki&item= NC(=S)N1N=C(c2ccccc2)CC1c1ccc(F)cc1 (stereo not drawn)
Given back: 1.67

Asked: Any idea what its log10 Ki is? The compound is Cc1ccc(/C=C/C(=N\NC(=S)NN)c2ccccc2)cc1
Given back: 1.77

Asked: # get_value(readout='log10 Ki', item= COc1ccc(C2=NN(C(N)=S)C(c3ccccc3)C2)c(OC)c1 (stereo not drawn) )
Given back: 1.76

Asked: Sample NC(=S)N1N=C(c2ccccc2)CC1c1ccc(Cl)cc1 (stereo not drawn) — what was its log10 Ki?
Given back: 1.48

Asked: Which value of log10 Ki has been reported for Cc1ccc(C2C=C(c3ccccc3)NC(=S)N2)cc1 (stereo not drawn) in the records?
Given back: 1.44

====

Molecular target: native S. pasteurii CCM 2056 urease (Sporosarcina pasteurii, UniProt P41020)
Construct: The S. pasteurii CCM 2056 cells were used as the source of a native enzyme; endogenous in cells; host or cells: S. pasteurii CCM 2056 culture; endogenous enzyme purified in house from the sonicated cell extract by five-step chromatography
Assay: Inhibition of purified native urease, indophenol (Berthelot) ammonia assay
Type: biochemical
Conditions: Ki [μM] (± SD), purified native enzyme; EI dissociation constant from Lineweaver-Burke plots; urea up to 30 mM; 3 mM phosphate buffer
Experimental: The kinetic properties of the compounds as potential urease inhibitors were evaluated against native enzyme purified from S. pasteurii CCM 2056 culture. Residual enzyme activity was expressed as ammonia release from urea followed quantitively using the Berthelot reaction. […] Inhibition of the purified urease was measured using the indophenol assay for ammonia concentration.[65] […] Total progress curves were analyzed with the addition of the enzyme at the reaction start. […]
PARAMETER_MEASURED: Ki (µM)
Use µM as the unit, but write only the number.

Asked: // query Ki value for entry COc1ccc(-c2csc(NC(=S)NCc3ccccc3)n2)c(OC)c1
Given back: 22.2

====

target: native S. pasteurii CCM 2056 urease (Sporosarcina pasteurii, UniProt P41020); construct: The S. pasteurii CCM 2056 cells were used as the source of a native enzyme; endogenous in cells; host or cells: S. pasteurii CCM 2056 culture; endogenous enzyme purified in house from the sonicated cell extract by five-step chromatography; assay: Inhibition of purified native urease, indophenol (Berthelot) ammonia assay; type: biochemical; settings: purified S. pasteurii urease
Field: α quantifier between ESI dissociation constant Ki* and EI dissociation constant Ki. Provide a value for each of the molecules that follow.
Quick one: just the number, no unit, thanks!

Asked: Which measured α quantifier between ESI dissociation constant Ki* and EI dissociation constant Ki value corresponds to Oc1ccc(-c2csc(NC(=S)NCc3ccccc3)n2)cc1 ?
Given back: 1.37

Asked: Reported α quantifier between ESI dissociation constant Ki* and EI dissociation constant Ki, molecule C/C(=N\NC(N)=S)c1ccccc1 : ____
Given back: 152.01

Asked: Could you share which α quantifier between ESI dissociation constant Ki* and EI dissociation constant Ki value was measured for NNC(=S)N/N=C(\C=C\c1ccccc1)c1ccccc1 ?
Given back: 14.52

Asked: Which value of α quantifier between ESI dissociation constant Ki* and EI dissociation constant Ki has been reported for Cc1ccc(/C=N/NC(N)=S)cc1 in the records?
Given back: 38.04

====

molecular target: native S. pasteurii CCM 2056 urease (Sporosarcina pasteurii); construct: The S. pasteurii CCM 2056 cells were used as the source of a native enzyme; endogenous in cells; host or cells: S. pasteurii CCM 2056 culture; endogenous enzyme purified in house from the sonicated cell extract by five-step chromatography; test: Inhibition of purified native urease, indophenol (Berthelot) ammonia assay; type: biochemical; settings: purified native enzyme; EI dissociation constant from Lineweaver-Burke plots; urea up to 30 mM; 3 mM phosphate buffer; read-out: Ki [μM] (± SD)
// returns Not met unless Ki is strictly below 8 µM, in which case Met

Asked: Below 8 µM on Ki? Entry Oc1ccc(-c2csc(NC(=S)NCc3ccccc3)n2)cc1 [Compound 52]
Given back: Met

Asked: Dear colleague, could you confirm whether Ki of S=C(NCc1ccccc1)Nc1nc(-c2ccc(Br)cc2)cs1 [Compound 53] falls below 8 µM? Thanks.
Given back: Not met

Asked: Decide: Ki of Cc1ccc(/C=C/C(=N\NC(N)=S)c2ccccc2)cc1 [Compound 22] strictly below 8 µM?
Given back: Met

Asked: API: query returns whether the molecule falls strictly under 8 µM in Ki. Query: NNC(=S)N/N=C/c1ccccc1 [Compound 27]
Given back: Not met

Asked: Does this molecule meet the criterion Ki < 8 µM? NC(=S)N/N=C(\C=C\c1ccc(Cl)cc1)c1ccccc1 [Compound 23]
Given back: Not met

====

system: live cells of S. pasteurii CCM 2056; assay: Whole-cell ureolysis: ammonia release from urea in live cells; assay type: cell-based, Sporosarcina pasteurii; conditions: Sporosarcina pasteurii, CCM2056; urea hydrolysis in live cells; 30 mM urea; 10 mM PBS; read-out: IC50 [μM] (± SD) S. pasteurii cells
For each entry below, report its IC50 value.
Numeric answer only, unit µM assumed.

Asked: Tell me the measured IC50 of NC(=S)N/N=C(\C=C\c1ccc(F)cc1)c1ccccc1 , please.
Given back: 36.2

Asked: Could you share which IC50 value was measured for C/C(=N\NC(N)=S)c1ccc(O)cc1 ?
Given back: 87.6

Asked: Entry under review: COc1ccc(C(/C=C/c2ccccc2)=N/NC(N)=S)c(OC)c1 . Reported IC50?
Given back: 134

Asked: Param item = S=C(NCc1ccccc1)Nc1nc(-c2ccc(Br)cc2)cs1 ; retrieve measured IC50.
Given back: 416

Asked: Using the record for S=C(NCc1ccccc1)Nc1nc(-c2ccccc2)cs1 , report its IC50.
Given back: 476

Asked: Recorded IC50 for NC(=S)N/N=C/c1ccc(Cl)cc1 , please?
Given back: 16.4

Asked: So what's the measured IC50 for this one? NC(=S)N/N=C(\C=C\c1ccccc1)c1ccccc1
Given back: 102

Asked: May I ask what IC50 has been recorded for NNC(=S)N/N=C(\C=C\c1ccc(Cl)cc1)c1ccccc1 ?
Given back: 132

Asked: Request the reported IC50 associated with Cc1ccc(/C=N/NC(N)=S)cc1
Given back: 9.92

Asked: Form field: reported IC50 of C/C(=N\NC(N)=S)c1ccccc1
Given back: 194

Asked: What does the data say about its IC50? Entry: NC(=S)N/N=C/c1ccccc1
Given back: 3.83

Asked: Query: IC50; subject: NNC(=S)N/N=C/c1ccccc1
Given back: 11.6

Asked: Any idea what IC50 was measured for NC(=S)N/N=C(\C=C\c1ccc(Cl)cc1)c1ccccc1 ?
Given back: 58.4

Asked: If you can, please state the reported IC50 value of COc1ccc(-c2csc(NC(=S)NCc3ccccc3)n2)c(OC)c1 .
Given back: 326

Asked: Item under review: Oc1ccc(-c2csc(NC(=S)NCc3ccccc3)n2)cc1 . Reported IC50?
Given back: 76.3

Asked: May I ask what IC50 has been recorded for NC(=S)N/N=C(\C=C\c1ccccc1)c1ccc(O)cc1 ?
Given back: 149

Asked: IC50 for Cc1ccc(/C=N/NC(=S)NN)cc1 ?
Given back: 118

Asked: Name the reported IC50 value associated with the molecule Cc1ccc(/C=C/C(=N\NC(N)=S)c2ccccc2)cc1
Given back: 764

Asked: Look up IC50 for this molecule: Cc1ccc(/C=C/C(=N\NC(=S)NN)c2ccccc2)cc1
Given back: 553
